# target-or-system: human 5-HT2B receptors (Homo sapiens, UniProt P41595)
# Construct: expressed in transfected cells; host or cells: CHO cell line
# Sequence (P41595 whole entry): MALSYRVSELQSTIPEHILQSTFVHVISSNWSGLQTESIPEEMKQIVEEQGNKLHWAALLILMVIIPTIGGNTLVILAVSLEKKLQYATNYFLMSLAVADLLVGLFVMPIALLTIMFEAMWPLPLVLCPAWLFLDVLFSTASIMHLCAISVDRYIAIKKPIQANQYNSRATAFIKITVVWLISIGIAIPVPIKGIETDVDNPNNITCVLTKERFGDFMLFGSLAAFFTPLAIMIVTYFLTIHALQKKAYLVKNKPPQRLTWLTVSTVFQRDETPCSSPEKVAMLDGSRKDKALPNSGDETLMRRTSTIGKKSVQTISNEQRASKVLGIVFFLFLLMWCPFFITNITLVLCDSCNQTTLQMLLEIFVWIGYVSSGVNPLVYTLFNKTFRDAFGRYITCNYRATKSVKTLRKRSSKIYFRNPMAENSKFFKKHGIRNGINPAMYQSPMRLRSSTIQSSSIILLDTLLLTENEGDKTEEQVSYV
# procedure-text: Radioligand binding to 5-HT2B receptor ([3H]-5-HT, CHO cell line)
# Description: 1. Binding to Serotonin Receptors The binding of compounds of formula (I) to serotonin receptors was determined in vitro by standard methods. The preparations were investigated in accordance with the assays given hereinafter. Method (b): For the binding to the 5-HT2B receptor the 5-HT2B receptors were radiolabelled with [^3H]-5-HT. The affinity of the compounds for human 5-HT2B receptors in a CHO cell line was determined according to the procedure of K. Schmuck, C. […]
The following molecules are listed with their measured pKi values.
Scale: negative log10 of molar concentration, which is what pKi denotes.

1) COc1c(F)ccc2c1C1CCCC1N2CC(C)N (mixture of isomers)    6.44

Below: the item to evaluate.
Challenge: Form: Entry = COc1cc2c(cc1F)C1CCCC1N2C[C@H](C)N (single isomer, unassigned; isomer i) | System = human 5-HT2B receptors (Homo sapiens, UniProt P41595) | pKi = ____
Response given: 6.29

Origin of the recorded values: patent US6479534B1
